Starred links: 1 amine or outer side, 2 acyl side, 3 side chain; linkers in the order of their positions; H or OH if unused. Non-standard residues stand in square brackets, D forms with d. Residues, ends and D or L forms follow the SMILES beside them. X5 = N/C(=N\C1CC1)NCCC[C@H](N[*:1])C(=O)[*:2]; X1 = N/C(=N\O)NCCC[C@H](N[*:1])C(=O)[*:2]
Dear all, this message contains Ki results, target or system Protein arginine N-methyltransferase 6 (Homo sapiens, UniProt Q96LA8).
MEASURED ENDPOINT: Ki (µM)

COMPOUND	UNIT DESCRIPTOR	OP	NUMERIC RESULT
N=C(N)NCCC[C@H](NC(=O)CN)C(=O)N[C@@H](CCCCN)C(=O)N[C@@H](CCCCN)C(=O)N[C@@H](CCCN/C(N)=N/C1CC1)C(=O)N[C@@H](CCCNC(=N)N)C(=O)N[C@@H](CCC(N)=O)C(=O)N[C@@H](CCCNC(=N)N)C(=O)N[C@@H](CCCNC(=N)N)C(=O)N[C@@H](CCCNC(=N)N)C(=O)N1CCC[C@H]1C(=O)N1CCC[C@H]1C(=O)N[C@@H](CCC(N)=O)C(=O)O (H-GRKK[X5]RQRRRPPQ-OH)	µM	>	100
N=C(N)NCCC[C@H](NC(=O)CN)C(=O)N[C@@H](CCCCN)C(=O)N[C@@H](CCCCN)C(=O)N[C@@H](CCCN/C(N)=N/O)C(=O)N[C@@H](CCCNC(=N)N)C(=O)N[C@@H](CCC(N)=O)C(=O)N[C@@H](CCCNC(=N)N)C(=O)N[C@@H](CCCNC(=N)N)C(=O)N[C@@H](CCCNC(=N)N)C(=O)N1CCC[C@H]1C(=O)N1CCC[C@H]1C(=O)N[C@@H](CCC(N)=O)C(=O)O (H-GRKK[X1]RQRRRPPQ-OH)	µM	=	63
N=C(N)NCCC[C@H](NC(=O)CN)C(=O)N[C@@H](CCCCN)C(=O)N[C@@H](CCCCN)C(=O)N[C@@H](CCCNC(=N)N)C(=O)N[C@@H](CCCNC(=N)N)C(=O)N[C@@H](CCC(N)=O)C(=O)N[C@@H](CCCNC(=N)N)C(=O)N[C@@H](CCCNC(=N)N)C(=O)N[C@@H](CCCNC(=N)N)C(=O)N1CCC[C@H]1C(=O)N1CCC[C@H]1C(=O)N[C@@H](CCC(N)=O)C(=O)O	µM	=	35.1

###

Biological target: Histone-arginine methyltransferase CARM1 (Homo sapiens)
Sequence (whole entry): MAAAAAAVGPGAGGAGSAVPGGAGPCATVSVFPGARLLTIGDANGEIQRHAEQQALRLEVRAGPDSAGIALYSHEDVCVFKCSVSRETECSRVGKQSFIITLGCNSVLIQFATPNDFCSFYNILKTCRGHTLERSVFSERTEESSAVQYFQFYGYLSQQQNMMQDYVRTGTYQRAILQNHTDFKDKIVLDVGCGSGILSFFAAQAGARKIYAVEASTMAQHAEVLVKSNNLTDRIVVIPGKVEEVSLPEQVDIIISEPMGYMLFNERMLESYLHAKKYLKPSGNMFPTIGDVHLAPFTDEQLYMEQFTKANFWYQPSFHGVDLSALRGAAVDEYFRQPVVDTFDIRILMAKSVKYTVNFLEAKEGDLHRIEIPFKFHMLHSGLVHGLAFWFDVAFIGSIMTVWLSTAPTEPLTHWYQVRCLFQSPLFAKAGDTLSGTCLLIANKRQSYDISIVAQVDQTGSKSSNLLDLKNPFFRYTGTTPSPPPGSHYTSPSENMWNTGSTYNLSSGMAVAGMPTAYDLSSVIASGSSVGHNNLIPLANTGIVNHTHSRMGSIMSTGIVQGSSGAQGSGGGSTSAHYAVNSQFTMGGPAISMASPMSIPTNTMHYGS
Experiment: Activity at PRMT4 (unknown origin) using [methyl-14C]AdoMet at 0.25 to 200 uM after 60 to 120 mins by tricine gel electrophoresis
The source made the active and inactive calls. No cut-off for these calls is given here. Starred links: 1 amine or outer side, 2 acyl side, 3 side chain; linkers in the order of their positions; H or OH if unused. Non-standard residues stand in square brackets, D forms with d. Residues, ends and D or L forms follow the SMILES beside them. X2 = N/C(=N\CC(F)(F)F)NCCC[C@H](N[*:1])C(=O)[*:2]; X3 = N/C(=N\Cc1ccccc1)NCCC[C@H](N[*:1])C(=O)[*:2]
MEASURED ENDPOINT: Activity

COMPOUND	MEASURED ENDPOINT	RESULT
N=C(N)NCCC[C@H](NC(=O)CN)C(=O)N[C@@H](CCCCN)C(=O)N[C@@H](CCCCN)C(=O)N[C@@H](CCCN/C(N)=N/Cc1ccccc1)C(=O)N[C@@H](CCCNC(=N)N)C(=O)N[C@@H](CCC(N)=O)C(=O)N[C@@H](CCCNC(=N)N)C(=O)N[C@@H](CCCNC(=N)N)C(=O)N[C@@H](CCCNC(=N)N)C(=O)N1CCC[C@H]1C(=O)N1CCC[C@H]1C(=O)N[C@@H](CCC(N)=O)C(=O)O (H-GRKK[X3]RQRRRPPQ-OH)	Activity	Active
N=C(N)NCCC[C@H](NC(=O)CN)C(=O)N[C@@H](CCCCN)C(=O)N[C@@H](CCCCN)C(=O)N[C@@H](CCCN/C(N)=N/CC(F)(F)F)C(=O)N[C@@H](CCCNC(=N)N)C(=O)N[C@@H](CCC(N)=O)C(=O)N[C@@H](CCCNC(=N)N)C(=O)N[C@@H](CCCNC(=N)N)C(=O)N[C@@H](CCCNC(=N)N)C(=O)N1CCC[C@H]1C(=O)N1CCC[C@H]1C(=O)N[C@@H](CCC(N)=O)C(=O)O (H-GRKK[X2]RQRRRPPQ-OH)	Activity	Active
